Biological target: T1, recombinant human regenerating islet-derived protein 1α (REG1A) (human, UniProt P05451 23-166, limits assumed)
T1 construct: also called recombinant human REG1A; recombinant REG1A
T1 sequence (looked up): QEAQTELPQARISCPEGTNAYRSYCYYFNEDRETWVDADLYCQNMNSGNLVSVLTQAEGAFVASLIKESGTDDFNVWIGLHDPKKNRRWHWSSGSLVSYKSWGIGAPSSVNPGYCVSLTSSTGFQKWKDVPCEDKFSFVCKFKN
Test: sandwich ELISA; capture 12F12A10; REG1A 100.00 ng/mL
test readout: OD value (OD)
Just the number in OD, nothing appended.

Requested read-out: OD value. Entry: antibody 11D11B11 (antibody, mouse IgG2a, kappa, V domains shown, Mouse monoclonal from hybridoma, stated mouse IgG1/Kappa; Used unlabelled as capture and biotin-labelled as detection antibody; also called 11D11B11-biotin) VH: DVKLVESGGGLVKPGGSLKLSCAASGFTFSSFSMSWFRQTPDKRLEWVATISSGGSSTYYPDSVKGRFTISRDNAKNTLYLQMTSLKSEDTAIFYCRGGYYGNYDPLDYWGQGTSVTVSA VL: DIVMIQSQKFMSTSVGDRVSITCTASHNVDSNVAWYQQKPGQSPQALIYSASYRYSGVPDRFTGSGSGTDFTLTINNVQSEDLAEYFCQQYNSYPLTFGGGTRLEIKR
3.15

Requested read-out: OD value. Entry: antibody 12F12A10 (antibody, V domains shown, Mouse monoclonal from hybridoma, stated mouse IgG1/Kappa; also called 12F12A10-biotin; Antibody 2) VH: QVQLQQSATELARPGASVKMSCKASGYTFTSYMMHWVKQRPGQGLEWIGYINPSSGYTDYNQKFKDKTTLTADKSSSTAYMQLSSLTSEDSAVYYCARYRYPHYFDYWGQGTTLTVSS VL: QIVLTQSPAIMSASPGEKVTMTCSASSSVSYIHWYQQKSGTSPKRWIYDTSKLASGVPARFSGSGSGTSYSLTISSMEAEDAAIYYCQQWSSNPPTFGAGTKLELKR
0.096

Requested read-out: OD value. Entry: antibody 4H8F1 (antibody, V domains shown, Mouse monoclonal from hybridoma, stated mouse IgG1/Kappa; also called 4H8F1-biotin; Antibody 1) VH: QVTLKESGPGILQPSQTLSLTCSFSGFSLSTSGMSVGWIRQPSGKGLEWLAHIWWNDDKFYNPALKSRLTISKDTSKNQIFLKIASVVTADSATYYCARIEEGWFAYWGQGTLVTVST VL: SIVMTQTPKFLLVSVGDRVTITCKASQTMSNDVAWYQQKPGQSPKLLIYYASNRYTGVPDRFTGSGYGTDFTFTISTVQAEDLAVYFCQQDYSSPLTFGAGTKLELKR
3.18

Requested read-out: OD value. Entry: antibody 21B11D2 (antibody, mouse IgG2b, kappa, V domains shown, Mouse monoclonal from hybridoma, stated mouse IgG1/Kappa; Used unlabelled as capture and biotin-labelled as detection antibody; also called 21B11D2-biotin) VH: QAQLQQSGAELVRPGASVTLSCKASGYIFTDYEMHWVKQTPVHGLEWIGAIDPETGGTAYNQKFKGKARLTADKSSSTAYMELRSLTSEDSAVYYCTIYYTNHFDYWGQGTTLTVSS VL: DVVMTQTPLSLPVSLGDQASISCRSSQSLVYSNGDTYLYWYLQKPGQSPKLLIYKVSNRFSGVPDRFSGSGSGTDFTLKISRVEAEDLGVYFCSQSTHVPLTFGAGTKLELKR
3.35
